# Test system: K-562 leukemia growth, % test/control
# Protocol: Anticancer human tumor K-562 cell line growth inhibition; active means viability on the fitted dose curve at most 10% of control; inactive means the rest;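 further: spheroids exposed to compounds for 7 days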
# Assay Setup: second compound 1 µM; first compound 0.000949 µM; spheroids with HUVEC and MSC
# Excerpt: Multicellular complex tumor spheroid response to LSD1 Inhibitor Iadademstat in combination with a variety of drugs and investigational agents in selected tumor cell lines The current study was undertaken to assess response to LSD1 inhibitors in combination with standard-of-care drugs and investigational agents in solid tumor complex spheroid models as well as in the K-562 leukemia. […] Compounds. […] If the clinical Cmax for an agent had not been determined, the highest concentration tested was 10 microM. […]
Possible outcomes: active, inactive

| Compound | Class Assignment |
| --- | --- |
| Nc1ncn(C2CC(O)C(CO)S2)c(=O)n1 (stereo unspecified) + NC1CCC(NC2CC2c2ccccc2)CC1 | inactive |
| Nc1ccn(C2OC(CO)C(O)C2(F)F)c(=O)n1 (stereo unspecified) + NC1CCC(NC2CC2c2ccccc2)CC1 | inactive |
| CCc1c2c(nc3ccc(O)cc13)-c1cc3c(c(=O)n1C2)COC(=O)[C@]3(O)CC + NC1CCC(NC2CC2c2ccccc2)CC1 | active |
| CCc1c2c(nc3ccc(O)cc13)-c1cc3c(c(=O)n1C2)COC(=O)[C@]3(O)CC + NC1CC1c1ccc(-c2cccc(O)c2)cc1 | active |
| Nc1ncn(C2CC(O)C(CO)S2)c(=O)n1 (stereo unspecified) + NC1CC1c1ccc(-c2cccc(O)c2)cc1 | inactive |
| Nc1ccn(C2OC(CO)C(O)C2(F)F)c(=O)n1 (stereo unspecified) + NC1CC1c1ccc(-c2cccc(O)c2)cc1 | inactive |
